FYI, the data here is from PubChem BioAssay (Tox21).

- test_details: A CellTox Green Cytotoxicity Assay to monitor cytotoxicity in HepG2 cells - 32 hour (AID 1224883); further: on the % scale 0 is the no-effect control and ±100 the full control effect; nearly all actives have a fitted effect of over 50% in size
- condition_summary: CellTox Green fluorescence; series mostly up to 76.8 µM
Results filed as inconclusive are left out. Active and inactive are the calls of the source. The call rests on the fitted dose curve; in most records, active means well fitted activation curve with a large enough effect in the repeat runs; inconclusive means weak or mixed curves; inactive means flat fitted curve, though single readings scatter.
measure_name: Potency

# annotated cases, reported Potency shown
compound | Potency
O=C=NC1CCC(CC2CCC(N=C=O)CC2)CC1 (stereo not drawn) | inactive
Cc1ccc(C)o1 | inactive
Oc1ccc(Sc2ccc(O)cc2)cc1 | inactive
N#Cc1c(F)cccc1F | inactive
O=C(O)C1CCC(C(=O)O)CC1 (stereo not drawn) | inactive

Lab note: CCOC(=O)C1=C(C)NC(C)=C(C(=O)OC)C1c1cccc([N+](=O)[O-])c1 (stereo not drawn) gave Potency of inactive

====

- test_details: qHTS assay to test for compound auto fluorescence at 535 nm (green) in HEK293 cell free culture (AID 720682); further: on the % scale 0 is the no-effect control and ±100 the full control effect
- condition_summary: cell-free medium, green autofluorescence 485/535 nm, stronger effect = higher value; series mostly up to 91.3 µM
Calls of active or inactive are those of the source. The call rests on the fitted dose curve; in most records, active means well fitted curve in the direction sought with a large enough effect in the repeat runs; inconclusive means weak or mixed curves; inactive means flat fitted curve, though single readings scatter.
measure_name: activity change

compound | activity change
Cn1sccc1=O | inactive
CC(C)NCC(O)COc1ccc(CC(N)=O)cc1 (stereo unspecified) | inactive
C=CC(=O)OCCOC(=O)CCC(=O)O | inactive
Oc1ccc(O)c2c(O)cccc12 | inactive
CC(C(=O)O)c1ccc(-c2ccccc2)c(F)c1 (stereo unspecified) | inactive
FC(F)(F)C(F)(F)C(F)(F)C(F)(F)C(F)(F)C(F)(F)CCI | inactive

Please look at the following compound next.
Memo: "COc1cc(C(C)(C)C)c(O)c(C(C)(C)C)c1" , reported activity change: inactive

====

- test_details: Caspase-3/7 induction in HepG2 cells by small molecules, qHTS cell viability counter screen (AID 1346981); further: on the % scale 0 is the no-effect control and ±100 the full control effect; nearly all actives have a fitted effect of over 30% in size
- condition_summary: CellTiter-Fluor fluorescence, 17 h; series mostly up to 92.4 µM
Inconclusive results are not listed. Activity calls are given as the source filed them. Calls follow the shape of the dose curve; as a rule, active = well fitted cell-killing curve with a large enough effect in the repeat runs; inconclusive = weak or mixed curves, or effect the other way; inactive = flat fitted curve, though single readings scatter.
measure_name: activity change, negative = cytotoxicity

// below: answered molecules
molecule | activity change, negative = cytotoxicity
CC1=CCC(C(C)C)C=C1 (configuration not stated) | inactive
CC[C@@H]1C[C@H](N(Cc2cc(C(F)(F)F)cc(C(F)(F)F)c2)C(C)=O)c2cc(C(F)(F)F)ccc2N1C(=O)OC(C)C | inactive
O=[N+]([O-])c1cccc(Cl)c1Cl | inactive
CCCCOc1cc(C(=O)OCCN(CC)CC)ccc1N | inactive
C[C@@H](C1=C(CCN(C)C)Cc2ccccc21)c1ccccn1 | inactive
CCOc1ccc(NC(=O)CC(C)=O)cc1 | inactive

Could you now look at the following molecule, please?
The measured activity change, negative = cytotoxicity associated with "CCCCCCCCCCCCCCCCCBr" reads 2.8% [at 19 µM] (inactive)

====

- test_details: qHTS assay to identify small molecule agonists of the estrogen receptor alpha (ER-alpha) signaling pathway in the presence of an antagonist - cell viability counter screen (AID 1259386);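 further: cells exposed to compounds for 22 h at 37 °C before the viability read; on the % scale 0 is the no-effect control and ±100 the full control effect; nearly all actives have a fitted effect of over 30% in size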
- condition_summary: VM7Luc4E2 viability, CellTiter-Fluor fluorescence, 22 h; series mostly up to 92.4 µM
Records with an inconclusive call do not appear. Calls of active or inactive are those of the source. Calls come from the whole dose curve; as a rule, active = well fitted cell-killing curve with a large enough effect in the repeat runs; inconclusive = weak or mixed curves, or effect the other way; inactive = no such curve, though single readings can be large or run the other way.
measure_name: activity change, negative = cytotoxicity

Worked set:
molecule | activity change, negative = cytotoxicity
O=C(NN1CCCC1)NS(=O)(=O)c1ccc(Cl)cc1 | inactive
CN(C(=O)CCCOc1ccc2[nH]c(=O)ccc2c1)C1CCCCC1 | inactive
CC(O)C1CCCCC1 (stereo not drawn) | inactive
Nc1ccc(C(=O)N2CC3CC(CN(Cc4ccccc4)C3)C2)cc1 | inactive
CCCCCCCCCC(=O)OCC | inactive
CC(=O)N(O)CCCCCNC(=O)CCC(=O)N(O)CCCCCNC(=O)CCC(=O)N(O)CCCCCN | inactive
COCCOCCOCCOCCOC | inactive
CCCCCCc1ccc(N)cc1 | inactive

Now turn to the next molecule.
response.value for "CCOC(=O)[C@H](CCc1ccccc1)N[C@H]1CCc2ccccc2N(CC(=O)O)C1=O" (field: activity change, negative = cytotoxicity) = inactive
